Measured TGI of individual entries
# Test system: HCT-116 colon
# ASSAY NOTES: NCI tumour cell line growth inhibition, 48 h

# SMI, TGI
records = [
    ("COc1ccc(/C(Cl)=C(\\CNc2ccccn2)c2ccccc2)cc1OC", "> 100 µM"),
    ("O=C1C=C(NCCc2cc(Cl)c(O)c(Cl)c2)C(=O)c2[nH]cnc21", "> 100 µM"),
    ("Cc1ccc2nc(CC(=O)c3ccc4ccccc4c3)c(=O)[nH]c2c1", "> 100 µM"),
]

###

Measured TGI of individual entries
# Test system: MCF7 breast
# ASSAY NOTES: NCI tumour cell line growth inhibition, 48 h

# COMPOUND, MEASURED TARGET, TGI
measured = [
    ("Nc1nc(NCC2(CO)CC(CCc3ccccc3)C2)cc(=O)[nH]1 (stereo not given)", "MCF7 breast", "> 100 µM"),
    ("NCC(=O)NC(CO)C(=O)O (stereo not given)", "MCF7 breast", "> 100 µM"),
    ("CC1C(=O)CC[C@@]2(C)C(=O)CCCC12O (stereo not given in full)", "MCF7 breast", "> 100 µM"),
    ("COc1cc(C(=O)Nc2cc(O)c(C/C=C(\\C)CCC=C(C)C)c(O)c2)cc2c1O[C@]1(C)CC[C@@H](O)C(C)(C)[C@H]1C2", "MCF7 breast", "12.3 µM"),
    ("Cc1cc(S(=O)(=O)Nc2nc(N)nc(N(C)C)n2)c(SC(C(=O)O)c2ccccc2)cc1Cl (stereo not given)", "MCF7 breast", "> 10 µM"),
]
